Listed here are compounds together with their documented pIC50.
# System: HL-60
# experimental protocol: Cytotoxicity against human HL60 cells assessed as cell viability after 24 hrs by MTT assay
# Type: functional, cell-based
# condition parameters: HL-60, 24 h
Conceptually, pIC50 converts a concentration in mol/L into minus its log10.

Please review the following examples before continuing.
CCC(C)C(=O)c1c(O)c2c(c3c([C@@H](O)CC)cc(=O)oc13)OC(C(C)(C)O)C2 (some centres not stated) : 4.54
CCCC(=O)c1c(O)c(C/C=C(\C)CCC=C(C)C)c(O)c2c([C@@H](O)CC)cc(=O)oc12 : 4.93
CCCC(=O)c1c2c(c3oc(=O)cc(CCC)c3c1O)C=CC(C)(C)O2 : 4.43
CCC(C)C(=O)c1c(O)c(C/C=C(\C)CCC=C(C)C)c(O)c2c([C@@H](O)CC)cc(=O)oc12 (some centres not stated) : 4.88

# input Fill in reported pIC50 for this entry: CCC(C)C(=O)c1c(O)c(CC=C(C)C)c(O)c2c([C@@H](O)CC)cc(=O)oc12 (some centres not stated)
# output 4.86
